Assay: acute toxicity (LD50), intravenous, mice
Details: mouse, in vivo; intravenous administration in mice
measuredQuantity: LD50 (mg/kg)
Record the value in mg/kg, omitting the unit from your answer.

What the record says about CC1(C)OC[C@@H](COC(=O)CCc2ccc(OC[C@@H](O)CNCCNC(=O)N3CCOCC3)cc2)O1 [2 (b)] : LD50 is 290
